Assay: Blood exposure in OD26749 bridging study
Assay type: in vivo, nude mice
Conditions: nude, mouse, whole blood; 100 mg/kg PO bid (0 and 4 h) combination groups with 2 Gy whole body IR
Endpoint Label: AUC
Field: value (include unit after the number)

[2H]c1nc(C)nc([2H])c1-c1cc(NC[C@@H](C)c2cccc3c(C(=O)NC)ccnc23)ncn1 [Compound (2)] = 58200 ng·h/mL

Now consider a different compound.
Fill in the blank: the reported AUC of CNC(=O)c1ccnc2c([C@H](C)CNc3cc(-c4cnc(C)nc4)ncn3)cccc12 [Compound (1)] is ____. 65800 ng·h/mL

* * *

Tested on: ESO26 (GEJ) cancer cell line
Test: Combination with genotoxic agents, viability (Mixtures analysis)
Assay type: cell-based
Settings: single agent IC50 on which the mixtures were based
Answer each item with its documented pIC50.
Give bare numbers, as −log10 of the molar value.

Some solved entries appear below for comparison.
N.N.O=C([O-])C1(C(=O)[O-])CCC1.[Pt+2] [carboplatin] = 4.30
[2H]c1nc(C)nc([2H])c1-c1cc(NC[C@@H](C)c2cccc3c(C(=O)NC)ccnc23)ncn1 [Compound (2)] = 4.70

Now consider a different compound.
Fill in the blank: the reported pIC50 of O=c1[nH]cc(F)c(=O)[nH]1 [Compound 5-FU, fluorouracil] is ____. 4.70
